System: A2780 human ovarian carcinoma cells
Assay: MTT reduction assay (4 h, rapid toxicity) on A2780 cells
Type: cell-based
Experimental Readout: effect in short-term MTT assay, rapid toxicity (in words)

# Molecule, Assayed System, Observed Measurement
records = [
    ("Cc1ccc(C(C)C)cc1.F[P-](F)(F)(F)(F)F.O=C(OCC1OC(c2nnc(-c3ccccn3)o2)C(OC(=O)c2ccccc2)C(OC(=O)c2ccccc2)C1OC(=O)c1ccccc1)c1ccccc1.[Cl][Ru+] (mixture of isomers) [Ru-8]", "A2780 human ovarian carcinoma cells", "cytostatic properties"),
    ("O=C(OC[C@H]1O[C@@H](c2nnc(-c3ccccn3)o2)[C@H](OC(=O)c2ccccc2)[C@@H](OC(=O)c2ccccc2)[C@H]1OC(=O)c1ccccc1)c1ccccc1 [Complex L-8]", "A2780 human ovarian carcinoma cells", "no biological activity"),
    ("O=C(OC[C@H]1O[C@@H](n2cc(-c3ccccn3)nn2)[C@H](OC(=O)c2ccccc2)[C@@H](OC(=O)c2ccccc2)[C@@H]1OC(=O)c1ccccc1)c1ccccc1 [Complex L-2a]", "A2780 human ovarian carcinoma cells", "no biological activity"),
    ("O=C(OC[C@H]1O[C@@H](c2nnc(-c3ccccn3)o2)[C@H](OC(=O)c2ccccc2)[C@@H](OC(=O)c2ccccc2)[C@@H]1OC(=O)c1ccccc1)c1ccccc1 [Complex L-4]", "A2780 human ovarian carcinoma cells", "no biological activity"),
]

Next, consider the following molecule.
effect in short-term MTT assay, rapid toxicity (in words) of Cc1ccc(C(C)C)cc1.F[P-](F)(F)(F)(F)F.O=C(OC1COC(c2n[n+]3c(o2)-c2cccc[n+]2[Ru-]3[Cl])C(OC(=O)c2ccccc2)C1OC(=O)c1ccccc1)c1ccccc1 (mixture of isomers) [Ru-6] on A2780 human ovarian carcinoma cells?
cytostatic properties

----------
Experiment: Determination of the distribution coefficients (logD), n-octanol/PBS
Type: physicochemical
Conditions: n-octanol / PBS pH = 7.40
So I've got a bunch of compounds here, and I need their logD values.
The answer should be a number; do not append a unit.

What measured logD goes with Cc1ccc(C(C)C)cc1.F[P-](F)(F)(F)(F)F.O=C(OCC1OC(c2nnc(-c3ccccn3)o2)C(OC(=O)c2ccccc2)C(OC(=O)c2ccccc2)C1OC(=O)c1ccccc1)c1ccccc1.[Cl][Ru+] (mixture of isomers) ?
2.44

What measured logD goes with Cc1ccc(C(C)C)cc1.F[P-](F)(F)(F)(F)F.O=C(OCC1OC(c2n[n+]3c(o2)-c2cccc[n+]2[Ru-]3[Cl])C(OC(=O)c2ccccc2)C(OC(=O)c2ccccc2)C1OC(=O)c1ccccc1)c1ccccc1 (mixture of isomers) ?
2.41

What measured logD goes with Cc1ccc(C(C)C)cc1.F[P-](F)(F)(F)(F)F.O=C(OCC1OC(n2cc(-c3ccccn3)nn2)C(OC(=O)c2ccccc2)C(OC(=O)c2ccccc2)C1OC(=O)c1ccccc1)c1ccccc1.[Cl][Ru+] (mixture of isomers) ?
2.85

What measured logD goes with Cc1ccc(C(C)C)cc1.F[P-](F)(F)(F)(F)F.O=C(OC1COC(c2n[n+]3c(o2)-c2cccc[n+]2[Ru-]3[Cl])C(OC(=O)c2ccccc2)C1OC(=O)c1ccccc1)c1ccccc1 (mixture of isomers) ?
2.04

----------
So I've got a bunch of molecules here, and I need their pIC50 values.
System: A2780 human ovarian carcinoma cells
Assay: SRB proliferation assay (48 h) on A2780 cells
Format: cell-based
Conditions: SRB, nonlinear regression, N/A = could not be calculated/had no effect
Kindly note that pIC50 refers to -log10 of the concentration in mol/L and answer with the value alone.

What measured pIC50 goes with Cc1ccc(C(C)C)cc1.F[P-](F)(F)(F)(F)F.O=C(OCC1OC(n2cc(-c3ccccn3)nn2)C(OC(=O)c2ccccc2)C(OC(=O)c2ccccc2)C1OC(=O)c1ccccc1)c1ccccc1.[Cl][Ru+] (mixture of isomers) [Ru-2a] ?
6.05

What measured pIC50 goes with Cc1ccc(C(C)C)cc1.F[P-](F)(F)(F)(F)F.O=C(OCC1OC(c2nnc(-c3ccccn3)o2)C(OC(=O)c2ccccc2)C(OC(=O)c2ccccc2)C1OC(=O)c1ccccc1)c1ccccc1.[Cl][Ru+] (mixture of isomers) [Ru-8] ?
5.37

What measured pIC50 goes with N.N.[Cl][Pt][Cl] [Cisplatin, cisplatin, reference compound] ?
5.92

What measured pIC50 goes with N.N.O=C([O-])C1(C(=O)[O-])CCC1.[Pt+2] [Carboplatin, carboplatin, reference compound] ?
4.55

What measured pIC50 goes with Cc1ccc(C(C)C)cc1.F[P-](F)(F)(F)(F)F.O=C(OCC1OC(c2n[n+]3c(o2)-c2cccc[n+]2[Ru-]3[Cl])C(OC(=O)c2ccccc2)C(OC(=O)c2ccccc2)C1OC(=O)c1ccccc1)c1ccccc1 (mixture of isomers) [Ru-4] ?
5.21

What measured pIC50 goes with Cc1ccc(C(C)C)cc1.F[P-](F)(F)(F)(F)F.O=C(OC1COC(c2n[n+]3c(o2)-c2cccc[n+]2[Ru-]3[Cl])C(OC(=O)c2ccccc2)C1OC(=O)c1ccccc1)c1ccccc1 (mixture of isomers) [Ru-6] ?
5.07

What measured pIC50 goes with O=C1[O][Pt]2([NH][C@@H]3CCCC[C@H]3[NH]2)[O]C1=O [Oxaliplatin, oxaliplatin, reference compound] ?
6.92

What measured pIC50 goes with Cc1ccc(C(C)C)cc1.F[P-](F)(F)(F)(F)F.[Cl][Ru+].c1ccc(-n2cc(-c3ccccn3)nn2)cc1 [Ru-13] ?
4.92

----------
Tested on: A2780 human ovarian carcinoma cells
Experiment: MTT reduction assay (4 h, rapid toxicity) on A2780 cells
Type: cell-based
Experimental Readout: effect in short-term MTT assay, rapid toxicity (in words)

# Compound, Observed Measurement
data = [
    ("Cc1ccc(C(C)C)cc1.F[P-](F)(F)(F)(F)F.O=C(OCC1OC(c2n[n+]3c(o2)-c2cccc[n+]2[Ru-]3[Cl])C(OC(=O)c2ccccc2)C(OC(=O)c2ccccc2)C1OC(=O)c1ccccc1)c1ccccc1 (mixture of isomers) [Ru-4]", "cytostatic properties"),
    ("Cc1ccc(C(C)C)cc1.F[P-](F)(F)(F)(F)F.O=C(OCC1OC(n2cc(-c3ccccn3)nn2)C(OC(=O)c2ccccc2)C(OC(=O)c2ccccc2)C1OC(=O)c1ccccc1)c1ccccc1.[Cl][Ru+] (mixture of isomers) [Ru-2a]", "cytostatic properties"),
]
